The molecules listed here are annotated with their Plasma (0.1 μM), activity in % of control.
# target-of-assay: Dopamine beta hydroxylase (Homo sapiens, UniProt P09172)
# Construct: 125 μl of plasma; tissue Instituto Português do Sangue Transplantação; host or cells: human plasma from healthy donors
# Sequence (P09172 40-617 limits assumed): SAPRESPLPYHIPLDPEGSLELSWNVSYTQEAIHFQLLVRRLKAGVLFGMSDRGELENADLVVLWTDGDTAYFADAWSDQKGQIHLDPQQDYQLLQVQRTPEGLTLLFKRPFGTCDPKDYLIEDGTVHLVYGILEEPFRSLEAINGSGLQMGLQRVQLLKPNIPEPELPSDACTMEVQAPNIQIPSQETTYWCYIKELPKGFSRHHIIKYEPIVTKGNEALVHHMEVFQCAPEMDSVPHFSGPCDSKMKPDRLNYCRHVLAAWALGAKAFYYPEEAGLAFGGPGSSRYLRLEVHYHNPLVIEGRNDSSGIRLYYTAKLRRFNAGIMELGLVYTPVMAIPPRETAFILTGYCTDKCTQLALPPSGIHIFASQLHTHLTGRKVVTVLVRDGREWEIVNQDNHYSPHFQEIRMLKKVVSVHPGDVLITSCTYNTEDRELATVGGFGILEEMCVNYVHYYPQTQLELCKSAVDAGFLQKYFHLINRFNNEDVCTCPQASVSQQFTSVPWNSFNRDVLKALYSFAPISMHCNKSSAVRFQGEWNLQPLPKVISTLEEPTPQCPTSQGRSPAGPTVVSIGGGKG
# protocol-description: Dopamine beta hydroxylase activity in human plasma
# Assay type: biochemical
# stated-conditions: inhibitor 0.1 μM
outcome-measure: Plasma (0.1 μM), activity in % of control

>>> recorded_value("O=C(Cc1[nH]c(=S)n2c1C[C@@H](c1c(F)ccc(Cl)c1F)C2)NC1CCCC1")
"24.5 % of control"
>>> recorded_value("CN1C[C@@H](NC(=O)Cc2c3n(c(=S)n2C)C[C@@H](c2c(F)ccc(F)c2F)C3)CC1=O")
"33.1 % of control"
>>> recorded_value("O=C(Cc1[nH]c(=S)n2c1C[C@H](c1c(F)ccc(F)c1F)C2)N[C@@H]1CCCOC1")
"56.9 % of control"
>>> recorded_value("O=C(Cc1[nH]c(=S)n2c1[C@@H]1C[C@]1(c1cc(Br)ccc1F)C2)NCC1CC1")
"20.1 % of control"
>>> recorded_value("Cl.Fc1cc(F)c(F)c([C@H]2Cc3c(CCN4CCCC4)[nH]c(=S)n3C2)c1F")
"11.1 % of control"
>>> recorded_value("[2H]C([2H])([2H])n1c(CC(=O)N2CCOCC2)c2n(c1=S)C[C@H](c1c(F)ccc(Cl)c1F)C2")
"18.2 % of control"
>>> recorded_value("Cn1c(CC(=O)N2CC[C@H](C#N)C2)c2n(c1=S)C[C@@H](c1c(F)ccc(F)c1F)C2")
"44.8 % of control"
